Test system: 4T1
Assay: Antiproliferative activity against mouse 4T1 cells after 48 hrs by MTT assay
Assay type: functional, cell-based
Conditions: 4T1, 48 h
metric: IC50 (µg/mL)
Kindly answer with a numeric value in µg/mL, unit omitted.

CC(C)(C)c1ccc(C2C(C#N)=C(N)OC3=C2C(=O)CC3)cc1 (stereo not given); 117

Request: Which IC50 value is on record for COc1cccc(C2C(C#N)=C(N)OC3=C2C(=O)CC(C)(C)C3)c1 (stereo not given) ?
Result: 248

Request: Which IC50 value is on record for N#CC1=C(N)Oc2c(c(=O)oc3ccccc23)C1c1ccc([N+](=O)[O-])cc1 (stereo not given) ?
Result: 142

* * *

Test: Antiproliferative activity against human PANC1 cells after 48 hrs by MTT assay
Assay type: functional, cell-based
Details: PANC-1, 48 h
In this section, each of the compounds is paired with its reported IC50.
Kindly answer with a numeric value in µg/mL, unit omitted.

Consider the worked cases shown below.
COc1cc(C2C(C#N)=C(N)OC3=C2C(=O)CC3)cc(OC)c1OC (stereo unspecified); 200
N#Cc1ccc(C(c2c(O)c3ccccc3oc2=O)c2c(O)c3ccccc3oc2=O)cc1; 93.5
COc1ccc(C(c2c(O)c3ccccc3oc2=O)c2c(O)c3ccccc3oc2=O)cc1; 42.5

Request: Which IC50 value is on record for `COc1ccccc1C(c1c(O)c2ccccc2oc1=O)c1c(O)c2ccccc2oc1=O` ?
Result: 62.1

Request: Which IC50 value is on record for CC(C)c1ccc(C2C(C#N)=C(N)Oc3c2c(=O)oc2ccccc32)cc1 (stereo unspecified) ?
Result: 256

* * *

Test system: 4T1
Test: Selectivity index, ratio of IC50 for HUVEC to IC50 for mouse 4T1 cells
In this section, each of the compounds is paired with its reported Ratio IC50.

Consider the worked cases shown below.
O=c1oc2ccccc2c(O)c1C(c1ccc(F)c(F)c1)c1c(O)c2ccccc2oc1=O; 2.3
COc1ccccc1C(c1c(O)c2ccccc2oc1=O)c1c(O)c2ccccc2oc1=O; 2.3
N#Cc1ccc(C(c2c(O)c3ccccc3oc2=O)c2c(O)c3ccccc3oc2=O)cc1; 3.1

Shift focus to the following entry.
Request: Which Ratio IC50 value is on record for `COc1ccc(C(c2c(O)c3ccccc3oc2=O)c2c(O)c3ccccc3oc2=O)cc1` ?
Result: 2.3

* * *

Tested on: PANC-1
Experiment: Selectivity index, ratio of IC50 for HUVEC to IC50 for human PANC1 cells
In this section, each of the compounds is paired with its reported Ratio IC50.
No unit in the answer, only the number.

Consider the worked cases shown below.
COc1ccc(C(c2c(O)c3ccccc3oc2=O)c2c(O)c3ccccc3oc2=O)cc1; 4.7
COc1ccccc1C(c1c(O)c2ccccc2oc1=O)c1c(O)c2ccccc2oc1=O; 1.9
O=c1oc2ccccc2c(O)c1C(c1ccc(F)c(F)c1)c1c(O)c2ccccc2oc1=O; 1.36

Shift focus to the following entry.
Request: Which Ratio IC50 value is on record for `N#Cc1ccc(C(c2c(O)c3ccccc3oc2=O)c2c(O)c3ccccc3oc2=O)cc1` ?
Result: 1.73

* * *

Assay: Cytotoxicity against HEK293 cells assessed as reduction in cell survival after 48 hrs by MTT assay
Type: cell-based, Homo sapiens
Conditions: human, HEK293 cells
In this section, each of the compounds is paired with its reported IC90 at 48 h.

Consider the worked cases shown below.
O=c1oc2ccccc2c(O)c1C(c1ccc(F)c(F)c1)c1c(O)c2ccccc2oc1=O; 221 µg/mL
COc1ccccc1C(c1c(O)c2ccccc2oc1=O)c1c(O)c2ccccc2oc1=O; 282 µg/mL
COc1ccc(C(c2c(O)c3ccccc3oc2=O)c2c(O)c3ccccc3oc2=O)cc1; 322 µg/mL

Shift focus to the following entry.
Request: Which IC90 at 48 h value is on record for `N#Cc1ccc(C(c2c(O)c3ccccc3oc2=O)c2c(O)c3ccccc3oc2=O)cc1` ?
Result: 343 µg/mL
